This collection of values is drawn from patent US20260242735A1.

study-system: human CD33 S124A (human, UniProt P20138 18-364)
Sequence (P20138 18-364 S124A limits assumed): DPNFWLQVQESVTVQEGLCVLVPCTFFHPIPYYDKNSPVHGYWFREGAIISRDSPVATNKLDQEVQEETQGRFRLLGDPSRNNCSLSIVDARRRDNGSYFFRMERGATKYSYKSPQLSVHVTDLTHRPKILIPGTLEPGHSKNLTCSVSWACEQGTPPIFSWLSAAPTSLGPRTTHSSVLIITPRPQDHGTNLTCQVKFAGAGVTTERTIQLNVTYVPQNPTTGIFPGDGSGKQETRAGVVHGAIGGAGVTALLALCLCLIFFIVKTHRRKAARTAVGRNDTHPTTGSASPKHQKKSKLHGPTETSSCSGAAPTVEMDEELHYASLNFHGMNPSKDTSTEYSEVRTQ
protocol-summary: flow cytometry on HEK293-T, alanine scan
metric: Mean % WT Binding (% WT binding)
// return numeric value only (unit: % WT binding, not printed)

Check out these entries, answers already filled in.
binder: Refmab #1 (antibody, V domains shown, The alanine scan used IgG or Fab; also called hP67.6) VH: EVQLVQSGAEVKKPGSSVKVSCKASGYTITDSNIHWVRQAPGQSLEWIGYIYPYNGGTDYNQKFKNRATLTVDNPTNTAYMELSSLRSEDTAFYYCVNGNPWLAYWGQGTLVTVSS VL: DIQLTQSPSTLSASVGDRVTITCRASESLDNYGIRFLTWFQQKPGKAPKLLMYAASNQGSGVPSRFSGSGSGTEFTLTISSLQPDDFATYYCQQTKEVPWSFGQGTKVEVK
units-symbol: % WT binding
quantitative-result: 87.5

binder: Refmab #3 (antibody, V domains shown, The alanine scan used IgG or Fab) VH: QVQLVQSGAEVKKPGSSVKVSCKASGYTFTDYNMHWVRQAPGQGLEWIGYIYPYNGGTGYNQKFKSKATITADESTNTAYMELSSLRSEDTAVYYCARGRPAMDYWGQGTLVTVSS VL: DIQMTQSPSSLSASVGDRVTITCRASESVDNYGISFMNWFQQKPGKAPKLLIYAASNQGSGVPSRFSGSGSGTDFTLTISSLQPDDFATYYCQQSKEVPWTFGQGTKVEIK
units-symbol: % WT binding
quantitative-result: 274

binder: Refmab #2 (antibody, V domains shown, The alanine scan used IgG or Fab) VH: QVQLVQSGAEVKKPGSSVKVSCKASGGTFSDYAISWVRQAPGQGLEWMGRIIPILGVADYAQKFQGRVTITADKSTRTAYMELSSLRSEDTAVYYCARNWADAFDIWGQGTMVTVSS VL: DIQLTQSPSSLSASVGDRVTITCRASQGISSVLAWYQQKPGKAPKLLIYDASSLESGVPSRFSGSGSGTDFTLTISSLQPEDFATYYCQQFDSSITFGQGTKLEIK
units-symbol: % WT binding
quantitative-result: 111

Continue with the binder presented below.
Lab note: Refmab #4 (antibody, V domains shown, The alanine scan used IgG or Fab) VH: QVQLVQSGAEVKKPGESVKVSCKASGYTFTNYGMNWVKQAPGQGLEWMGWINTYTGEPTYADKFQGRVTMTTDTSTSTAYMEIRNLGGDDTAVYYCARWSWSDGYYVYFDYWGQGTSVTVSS VL: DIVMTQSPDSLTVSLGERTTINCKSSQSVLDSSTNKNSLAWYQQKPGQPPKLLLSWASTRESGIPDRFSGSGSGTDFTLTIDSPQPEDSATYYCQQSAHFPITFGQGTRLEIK gave Mean % WT Binding of 58.8
